src = the supplement of paper PMC10567573

B1: ADD1 (parent)
chain: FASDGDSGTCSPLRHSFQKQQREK

variants of: B1; experiment: protein stability index of a GFP-peptide fusion (GPS, HEK-293T) (PSI 1-6); higher = more stable; details: c terminus: a fixed tail appended;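 further: lentivirally expressed fusions sorted by FACS into six bins by GFP to DsRed ratio, PSI derived from sequencing read proportions per bin multiplied by bin number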
Observed Property: protein stability index
Give bare numbers.

S3M	4.33

Could I get protein stability index for every one of these entries?
1. S3F
2. K24R
3. D6G
4. K19D
5. P12C
6. S3N

OUTPUT:
1. 1.92
2. 3.14
3. 3.31
4. 3.61
5. 2.73
6. 3.72

Could I get protein stability index for every one of these entries?
1. D6I
2. F1W
3. S7F

OUTPUT:
1: 1.92; 2: 5.13; 3: 2.72

Could I get protein stability index for every one of these entries?
1. C10R
2. F17Q
3. H15R
4. G8D
5. S7A
6. D4G
7. A2G
8. A2F

OUTPUT:
1. 4.07
2. 4.52
3. 3.45
4. 4.29
5. 3.82
6. 2.07
7. 4.11
8. 4.6

Could I get protein stability index for every one of these entries?
1. D4H
2. L13T
3. G5Y
4. T9S
5. E23L

OUTPUT:
1. 3.08
2. 4.98
3. 3.42
4. 3.82
5. 3.57

Could I get protein stability index for every one of these entries?
1. D4F
2. G5F
3. G8L
4. R14M
5. Q18D
6. L13Y
7. K24V
8. P12R

OUTPUT:
[2.41, 4.01, 3.2, 4.27, 3.83, 2.13, 3.13, 4.6]

Could I get protein stability index for every one of these entries?
1. S16N
2. S16D

OUTPUT:
1. 4.35
2. 4.82
